# Test system: Saccharomyces cerevisiae BY4741 SeMeCo community
# protocol_summary: z-score of subpopulation abundance vs DMSO median, subpopulation auxotrophic for HM; higher = larger share of this subpopulation than in DMSO controls
# protocol_conditions: 10 µM; 24 h; SM minimal medium; subpopulation (auxotrophy): HM
Where a name gives a salt, the structure may show the parent alone.
Decide using z-score of subpopulation abundance: a value greater than or equal to -0.4 is Yes, a smaller one is No.

Reference set, count: 3
Q. Form field: z-score of subpopulation abundance at least -0.4? Entry: CCCCCC(=O)O[C@]1(C(C)=O)CC[C@H]2[C@@H]3CCC4=CC(=O)CC[C@]4(C)[C@H]3CC[C@@]21C [Hydroxyprogesterone caproate]
A. Yes

Q. Form field: z-score of subpopulation abundance at least -0.4? Entry: `CN1CCN(c2c(F)cc3c(=O)c(C(=O)O)cn4c3c2OCN4C)CC1`
A. No

Q. Form field: z-score of subpopulation abundance at least -0.4? Entry: `O=C1CCc2ccc(OCCCCN3CCN(c4cccc(Cl)c4Cl)CC3)cc2N1`
A. Yes

New cases:
Q. Form field: z-score of subpopulation abundance at least -0.4? Entry: CCN1CC(CCN2CCOCC2)C(c2ccccc2)(c2ccccc2)C1=O (stereo not drawn) [Doxapram HCl]
A. No

Q. Form field: z-score of subpopulation abundance at least -0.4? Entry: `O=c1[nH]c(=O)n([C@H]2C[C@H](O)[C@@H](CO)O2)cc1I`
A. Yes

Q. Form field: z-score of subpopulation abundance at least -0.4? Entry: Cc1nccn1CC1CCc2c(c3ccccc3n2C)C1=O (stereo not drawn) [Ondansetron Hydrochloride Dihydrate]
A. No

Q. Form field: z-score of subpopulation abundance at least -0.4? Entry: `CC(=O)[C@H]1CC[C@H]2[C@@H]3CCC4=CC(=O)CC[C@]4(C)[C@H]3CC[C@]12C`
A. No
